Target: Ataxin-2 (Homo sapiens)
Assay: qHTS for Inhibitors of ATXN expression.
Assay type: functional
In all, about 400,000 compounds went through this assay and about 2,100 (0.53%) were called active. Inconclusive results (about 14%) are left out. No rule for the calls is given here. This excerpt belongs to a sample that is enriched for actives.
Just give me one of these, please: active, inactive

compound=COc1ccc(NC(=O)c2ccc(-c3ccc(-c4noc(C)n4)cc3C)cc2)cc1N1CCN(C)CC1 qualitative_label=active
compound=CC(C)(C)c1ccccc1NC(=O)c1cnn2c(C(F)F)cc(-c3ccccc3)nc12 qualitative_label=inactive
compound=COc1cccc(C(=O)Oc2c(Br)cc(Br)cc2/C=N/NC(=O)c2cc(C)[nH]n2)c1 qualitative_label=inactive
compound=C/C(CC(=O)Nc1ccc2c(c1)OCCO2)=N\NC(=O)COc1ccccc1C qualitative_label=inactive
compound=CN1CCN(C(=O)/C=C/c2ccc([N+](=O)[O-])o2)CC1 qualitative_label=active

Task item: Any idea what this test logged for "CCN(CC)c1ccc2cc(-c3nnc(-c4ccccc4)o3)c(=O)oc2c1" ?
Reply: inactive

Task item: Each compound tested received a call. Report the one for COC(C(=O)N/N=C(\C)CC(=O)Nc1ccc(N(C)C)cc1)c1ccccc1 (stereo not given) .
Reply: active

Task item: What call does the record list for "CC1=NN(c2ccccc2)C(=O)/C1=C/C=C/c1ccc(N(C)C)cc1" ?
Reply: active

Task item: Check the results log: what was the call for COc1ccc(CC(N)c2csc(NC(=O)Nc3ccccc3-c3ccccc3)n2)cc1 (stereo not given) ?
Reply: active

Task item: For this compound, state the assay outcome: "CCCCn1nc(NC(=O)c2cccs2)c2cc3ccccc3nc21"
Reply: inactive
